Ref: patent US12514856B2

- Measurement Protocol: Toxicological Risk Assessment of excipients in oral drops (MDI vs ADI)
- Set-up: species or system children
- Condition Context: Trazodone HCl 1.5% oral solution; Maximum Daily Therapeutic Dose up to 0.5 mg/kg/day
Short version: MDI (for 2 years aged children) at least 0.04 mg/kg/day is criterion met, less is criterion not met.

Known results for compounds:
>>> assigned_class("OC[C@H]1O[C@H](O[C@]2(CCl)O[C@H](CCl)[C@@H](O)[C@@H]2O)[C@H](O)[C@@H](O)[C@H]1Cl")
"criterion met"
>>> assigned_class("O=C([O-])CN(CCN(CC(=O)[O-])CC(=O)O)CC(=O)O.[Na+].[Na+] [Disodium edetate]")
"criterion not met"
>>> assigned_class("CCCOC(=O)c1cc(O)c(O)c(O)c1 [Propyl gallate]")
"criterion not met"
>>> assigned_class("CC(O)CO (stereo not drawn)")
"criterion met"

Q: Identify whether the reported MDI (for 2 years aged children) of the following compound is 0.04 mg/kg/day or greater: O=C(O)CC(O)(CC(=O)O)C(=O)O [Citric acid anhydrous]
Ans: criterion met
